Measured kd ratio pH 7.4/6.0, listed per entry.
# study_target: T1, cyno FcRn/b2M (cyno, UniProt Q8SPV9 24-297; Q8SPW0 21-119, biotinylated)
# T1 construct: bought recombinant biotinylated protein (Immunitrack ITF05 or ACRO FCM-C82W5); also called cFcRn; cFcRn/cb2M
# T1 sequence (Q8SPV9 24-297 limits assumed, chain 1 of 2): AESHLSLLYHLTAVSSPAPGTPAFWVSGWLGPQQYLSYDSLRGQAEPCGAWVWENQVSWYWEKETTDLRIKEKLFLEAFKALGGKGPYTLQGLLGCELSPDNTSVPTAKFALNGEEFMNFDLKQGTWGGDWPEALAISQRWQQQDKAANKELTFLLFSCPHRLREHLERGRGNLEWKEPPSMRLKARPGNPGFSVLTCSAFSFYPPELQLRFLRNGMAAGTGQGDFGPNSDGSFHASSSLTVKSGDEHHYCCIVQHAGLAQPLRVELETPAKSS
# T1 sequence (Q8SPW0 21-119 limits assumed, chain 2 of 2): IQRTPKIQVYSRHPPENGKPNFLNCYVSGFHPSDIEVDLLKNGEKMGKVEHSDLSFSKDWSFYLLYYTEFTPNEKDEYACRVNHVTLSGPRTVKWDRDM
# procedure_summary: SPR off-rate; pH 7.4 vs pH 6.0;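 note: surface plasmon resonance with diluted periplasmic extracts flowed over ligand surfaces, 120 s association and 600–3600 s dissociation at 25 °C, running buffer containing 150 mM NaCl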
Lab note: jot down the number only; don't add units.

Consider T0263018B11 G54T (VHH, name in Kabat numbering, FLAG3-His6 tagged) VHH: EVQLVESGGGVVQPGGSLRLSCAASGFTFSSYAMYWVRQAPGKGLEWVSAISSGTGSTDYADSVKGRFTISRDNSKNTLYLQMNSLRPEDTALYYCAADTLYTSLTWYSYWGQGTLVTVSS . Its measured kd ratio pH 7.4/6.0 is 35

Consider T0263018B11 W100cA (VHH, name in Kabat numbering, FLAG3-His6 tagged) VHH: EVQLVESGGGVVQPGGSLRLSCAASGFTFSSYAMYWVRQAPGKGLEWVSAISSGGGSTDYADSVKGRFTISRDNSKNTLYLQMNSLRPEDTALYYCAADTLYTSLTAYSYWGQGTLVTVSS . Its measured kd ratio pH 7.4/6.0 is 81
